assay: C. albicans growth inhibition with fluconazole, primary screen, CaCi-2 strain, Alamar Blue fluorescence (AID 1979);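 also: all wells also contain fluconazole at 8 µg/ml as a sub-toxic cotreatment; 0% = median of DMSO wells and 100% = median of geldanamycin control wells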; conditions: C. albicans CaCi-2 + fluconazole, 48 h, active compounds read high, concentration not given here
Out of some 300,000 compounds screened, about 1,700 (0.57%) were called active. Inconclusive results (about 2%) are left out. Only a selection was taken, and actives are over-represented in it overall.
Each record here notes measured growth inhibition.
Give the value in % but do not write % after it.

Use these answered entries as a reference point.
molecule	growth inhibition (%)
O=C(N/N=C/c1sc(N2CCCCC2)nc1-c1cccs1)c1cccnc1	94.5
COc1cccc(C(=O)NNC(=O)c2cccc(F)c2)c1	-10.7
O=C(O)CN1CCN(C(c2ccccc2)c2ccccc2)CC1	-6.25
COc1cccc(/C=N/Nc2ncc(C(F)(F)F)cc2Cl)c1O	3.96

Task: Returns the measured growth inhibition for the input molecule. Input: COc1cc(/C=C(\C#N)c2nc3c(s2)CC(C)CC3)ccc1O (stereo not given)
Result: 43.5

Task: Returns the measured growth inhibition for the input molecule. Input: `Cc1ccc(N/N=C2\COC(C)(C)CC2=O)cc1`
Result: 101

Task: Returns the measured growth inhibition for the input molecule. Input: O=C(O)C(c1ccccc1)N1C(=O)/C(=C\c2ccc(-c3cccc(Cl)c3)o2)SC1=S (stereo not given)
Result: 37.9

* * *

assay: C. albicans growth inhibition with fluconazole, primary screen, CaCi-2 strain, Alamar Blue fluorescence (AID 1979);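 also: all wells also contain fluconazole at 8 µg/ml as a sub-toxic cotreatment; 0% = median of DMSO wells and 100% = median of geldanamycin control wells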; conditions: C. albicans CaCi-2 (fluconazole-resistant clinical isolate) + fluconazole, 48 h, active compounds read high, concentration not given here
About 1,700 (0.57%) of roughly 300,000 compounds were called active. Not shown: some 2% with an inconclusive outcome. The full list was thinned out, with actives kept by preference.
recorded.metric: growth inhibition (%)
Give the value in % but do not write % after it.

Use these answered entries as a reference point.
compound	recorded.metric	unit	meas.value
CCc1nnc(SCc2cccc(F)c2)nc1CC	growth inhibition	%	-15.9
Cc1cccc(NC(=O)COC(=O)CCc2ccccc2)c1C	growth inhibition	%	0.193
Nc1cc(N)nc(SCc2cccc(F)c2)n1	growth inhibition	%	93.5
Cc1cccc(NC(=O)CN2C(=O)c3ccccc3C2=O)c1C	growth inhibition	%	-5.98
O=C(CC(NCCN1CCOCC1)C(=O)O)Nc1cccc(Cl)c1 (configuration not stated)	growth inhibition	%	90.7

Task: Returns the measured growth inhibition for the input compound. Input: `COc1ccc(OC)c(NC(=O)CSc2nc(-c3ccccc3)cc(=O)[nH]2)c1`
Result: 55

Task: Returns the measured growth inhibition for the input compound. Input: CCN1CCN(C(c2cccnc2)c2cc(Cl)c3cccnc3c2O)CC1 (configuration not stated)
Result: 101

Task: Returns the measured growth inhibition for the input compound. Input: CCOC(=O)N1CCN(C(c2cccnc2)c2ccc3cccnc3c2O)CC1 (configuration not stated)
Result: -9.67

Task: Returns the measured growth inhibition for the input compound. Input: `Oc1ccccc1CN1CCN(C(c2ccccc2)c2ccccc2)CC1`
Result: -4.19

Task: Returns the measured growth inhibition for the input compound. Input: `Nc1cc(N)nc(SCc2ccc(Cl)cc2)n1`
Result: 12.7

Task: Returns the measured growth inhibition for the input compound. Input: `CC(=O)c1sc(N)nc1C`
Result: -4.24

Task: Returns the measured growth inhibition for the input compound. Input: `O=C(NCCN1CCOCC1)Nc1cccc(Cl)c1`
Result: 10.7
